- target_of_assay: Alpha-2B adrenergic receptor (Homo sapiens, UniProt P18089)
- Sequence (P18089 whole entry): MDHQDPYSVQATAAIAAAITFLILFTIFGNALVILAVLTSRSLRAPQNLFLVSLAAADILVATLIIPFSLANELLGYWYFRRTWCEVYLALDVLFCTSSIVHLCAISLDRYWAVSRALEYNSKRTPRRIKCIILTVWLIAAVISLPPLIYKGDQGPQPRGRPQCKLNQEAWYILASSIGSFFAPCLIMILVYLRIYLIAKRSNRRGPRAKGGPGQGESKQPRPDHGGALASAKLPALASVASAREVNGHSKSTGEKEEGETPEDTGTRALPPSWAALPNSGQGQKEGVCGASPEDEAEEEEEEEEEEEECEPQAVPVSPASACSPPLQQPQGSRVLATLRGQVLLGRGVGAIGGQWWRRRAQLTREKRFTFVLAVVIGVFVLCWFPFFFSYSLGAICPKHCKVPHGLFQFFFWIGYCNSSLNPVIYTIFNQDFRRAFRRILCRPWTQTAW
- assay_remarks: Antagonist activity at human recombinant adrenergic alpha2B receptor expressed in CHO cells assessed as inhibition of NE-induced calcium mobilization by FLIPR
- Type: functional, cell-based
Reported pKi values are given for each entry in this list.
On this scale, pKi is minus log10 of a concentration expressed in M (mol/L).

Solved cases (3 shown):
- compound: "c1ccc(CN2CCN(CC3CCc4ccccc4O3)CC2)cc1 (stereo not given)"
  pKi: 6.74
- compound: "c1ccc(Oc2ncccc2-c2noc(CN3CCCN(CC4COc5ccccc5O4)CC3)n2)cc1 (stereo not given)"
  pKi: 8.28
- compound: "O=C(NCCN1CCCN(C[C@H]2COc3ccccc3O2)CC1)c1cccnc1Oc1ccccc1"
  pKi: 7.50

Incoming: Specify pKi for CCCCOc1cccc(C(=O)NCCN2CCCN(CC3COc4ccccc4O3)CC2)n1 (stereo not given) and stop.
Outgoing: 7.85

Incoming: Report pKi, nothing else, for this compound: O=C(NCCN1CCCN(CC2COc3ccccc3O2)CC1)c1cccnc1Oc1ccccc1 (stereo not given)
Outgoing: 6.88

Incoming: Determine from records and report pKi for CCCCOc1ncccc1C(=O)NCCN1CCCN(CC2COc3ccccc3O2)CC1 (stereo not given)
Outgoing: 7.88

Incoming: Answer with the recorded pKi for the compound listed here: N#Cc1cccc(Oc2ncccc2C(=O)NCCN2CCCN(CC3COc4ccccc4O3)CC2)c1 (stereo not given)
Outgoing: 7.56

Incoming: Look up and report measured pKi for this entry: COc1ccccc1N1CCN(CC2COc3ccccc3O2)CC1 (stereo not given)
Outgoing: 7.77

Incoming: For the compound CC(C)(C)Nc1ncccc1C(=O)NCCN1CCCN(CC2COc3ccccc3O2)CC1 (stereo not given) , give its measured pKi value.
Outgoing: 6.99

Incoming: Look up and state reported pKi for c1ccc(Oc2ncccc2COCCN2CCCN(CC3COc4ccccc4O3)CC2)cc1 (stereo not given)
Outgoing: 6.88

----------
- Species: Homo sapiens
- assay_remarks: Selectivity for human recombinant adrenergic Alpha-2C receptor over human recombinant adrenergic alpha2A receptor by radioligand binding assay
Could you please mark yes (1) for values of Ratio Ki below 20 and no (0) for values at or above it?

Past entries and their recorded results:
- molecule: "CCCCOc1ncccc1C(=O)NCCN1CCCN(CC2COc3ccccc3O2)CC1 (stereo not given)"
  label: "no (0)"
- molecule: "CCCCOc1cccc(C(=O)NCCN2CCCN(CC3COc4ccccc4O3)CC2)n1 (stereo not given)"
  label: "no (0)"
- molecule: "CC(C)(C)Nc1ncccc1C(=O)NCCN1CCCN(CC2COc3ccccc3O2)CC1 (stereo not given)"
  label: "no (0)"

Incoming: Does COc1ccccc1N1CCN(CC2COc3ccccc3O2)CC1 (stereo not given) have Ratio Ki strictly under 20?
Outgoing: yes (1)

Incoming: Decide: Ratio Ki of c1ccc(Oc2ncccc2-c2noc(CN3CCCN(CC4COc5ccccc5O4)CC3)n2)cc1 (stereo not given) strictly below 20?
Outgoing: no (0)

----------
- target_of_assay: Alpha-2A adrenergic receptor (Homo sapiens, UniProt P08913)
- Sequence (P08913 whole entry): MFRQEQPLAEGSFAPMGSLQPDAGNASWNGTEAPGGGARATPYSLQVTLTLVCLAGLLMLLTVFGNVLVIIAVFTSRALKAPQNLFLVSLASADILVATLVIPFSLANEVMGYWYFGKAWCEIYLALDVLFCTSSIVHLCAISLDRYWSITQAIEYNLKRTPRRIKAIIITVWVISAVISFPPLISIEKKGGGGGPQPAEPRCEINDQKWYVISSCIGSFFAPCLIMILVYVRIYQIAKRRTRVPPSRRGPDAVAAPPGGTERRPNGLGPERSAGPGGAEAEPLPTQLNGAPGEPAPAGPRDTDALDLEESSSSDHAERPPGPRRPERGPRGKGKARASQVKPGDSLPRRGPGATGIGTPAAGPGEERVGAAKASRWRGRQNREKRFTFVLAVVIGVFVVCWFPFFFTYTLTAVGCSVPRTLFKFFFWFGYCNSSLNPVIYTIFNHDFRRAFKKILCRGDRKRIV
- assay_remarks: Binding affinity at human recombinant adrenergic alpha2A receptor expressed in CHO cells by radioligand binding assay
- Type: cell-based
pKi: −log10 of the molar value.
Short version: pKi at least 7 is yes, less is no.

The examples below pair each entry with its known result.
- compound: "COc1ccccc1N1CCN(CC2COc3ccccc3O2)CC1 (stereo not given)"
  label: "no"
- compound: "N#Cc1cccc(Oc2ncccc2C(=O)NCCN2CCCN(CC3COc4ccccc4O3)CC2)c1 (stereo not given)"
  label: "no"
- compound: "c1ccc(CN2CCN(CC3COc4ccccc4C3)CC2)cc1 (stereo not given)"
  label: "no"
- compound: "c1ccc(Oc2ncccc2-c2noc(CN3CCCN(CC4COc5ccccc5O4)CC3)n2)cc1 (stereo not given)"
  label: "yes"

Incoming: pKi >= 7 for O=C(NCCN1CCN(CC2COc3ccccc3O2)CC1)c1cccnc1Oc1ccccc1 (stereo not given) ?
Outgoing: yes
